molecular target: T1, human PILRA, G78 variant, ectopically expressed on 293 cells (human, UniProt Q9UKJ1 20-303); assay: flow cytometry; blocking of NPDC1-hIgG1 binding to 293 cells expressing human PILRA G78
T1 construct: the cells are labelled G78; also called hA G78 OE; hA
T1 sequence (Q9UKJ1 other isoform, or with tags, fused parts or gaps mutant): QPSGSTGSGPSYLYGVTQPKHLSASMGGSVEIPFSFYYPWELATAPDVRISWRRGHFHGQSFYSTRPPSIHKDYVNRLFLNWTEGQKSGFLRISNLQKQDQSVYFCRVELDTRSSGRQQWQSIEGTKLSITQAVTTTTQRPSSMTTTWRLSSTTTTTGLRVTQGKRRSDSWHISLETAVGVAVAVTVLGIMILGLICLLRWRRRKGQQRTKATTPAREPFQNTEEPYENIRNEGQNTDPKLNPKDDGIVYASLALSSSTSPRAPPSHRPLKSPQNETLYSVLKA
outcome measure: IC50

*Q* Would you mind telling me what IC50 value was observed for E21 (antibody, V domains shown, phage campaign) VH: QVQLVQSGAEVKKPGSSVKVSCKASGYTFSNYDINWVRQAPGQGLEWMGGIIPIFGTANYALKFQGRVTITADESTSTAYMELSSLRSEDTAVYYCARGGPWLYFDYWGQGTLVTVSS VL: DIQMTQSPSSLSASVGDRVTITCRASQSISTYLNWYQQKPGKAPKLLIYAASTLQSGVPSRFSGSGSGTDFTLTISSLQPEDFATYYCQQSYSSPLTFGQGTKLEIK ?
*A* 0.6 µg/mL

*Q* Any idea what its IC50 is? The binder is A2 (antibody, V domains shown, phage campaign) VH: EVQLLESGGGLVKPGGSLRLSCAASGFTFSDYYMSWVRQAPGKGLEWVSSISIGGGGTYYADSVKGRFTISRDDSKNTLYLQMNSLRAEDTAVYYCASHGFGARKMDFWGQGTTVTVSS VL: DIQMTQSPSSLSASVGDRVTITCRASQSIRSYVNWYQQKPGKAPKLLIYDASNLETGVPSRFSGSGSGTDFTLTISSLQPEDFATYYCQQSYSPPITFGQGTKVEIK
*A* 0.78 µg/mL

*Q* Please report the recorded IC50 for A10 (antibody, V domains shown, phage campaign) VH: QVQLVQSGAEVKKPGASVKVSCKASGYTFTDYYIHWVRQAPGQGLEWMGWMNPNSGNTGYAQKFQGRVTMTRDTSTSTVYMELSSLRSEDTAVYYCAREGSSGWYVDYWGQGTLVTVSS VL: DIQMTQSPSSLSASVGDRVTITCQASQDISQFLNWYQQKPGKAPKLLIYDAYSLQSGVPSRFSGSGSGTDFTLTISSLQPEDFATYYCQQANSFPLTFGQGTKVEIK .
*A* 0.48 µg/mL
